System: SK-MEL-28 melanoma
Test: NCI-60 one-dose screen, 48 h (100 = growth as untreated, 0 = no growth, -100 = all killed)
Details: 10 µM unless noted
The panel holds about 83,000 compounds, 20% with a hit somewhere; the sample as a whole holds those more often. The source made the active and inactive calls. How the source made its calls: active means growth percent below 10; inactive means the rest.
Recorded growth values for a group of compounds are listed next.

- CCCCNC(=O)Oc1ccc(/C(=C(\C)c2ccc(Cl)cc2)c2ccc(OCCN3CCCCC3)cc2)cc1: 80.1% (inactive)
- NS(=O)(=O)c1ccc(-n2nc(C(=O)N/N=C\c3ccc(F)cc3)cc2-c2ccc(Br)cc2)cc1: 77.8% (inactive)
- COc1cc(C(=O)c2cc(C)c3[nH]c4ccc(C)cc4c3c2C)cc(OC)c1OC: 57.1% (inactive)
- O=C(O)CCC/C=C\C[C@H]1C=CC(=O)/C1=C/C[C@@H](O)CCc1cccc(C(F)(F)F)c1: -43.6% (active)

# input for lookup
Write growth of `CCN(CC)CCNc1nc2ccccc2c2c(=O)c3cc(Cl)ccc3sc12` ; system used: SK-MEL-28 melanoma 98.1% (inactive)

* * *

Tested on: SR leukemia
Test: NCI-60 one-dose screen, 48 h (100 = growth as untreated, 0 = no growth, -100 = all killed)
Settings: 10 µM unless noted
This is part of a sample that, as a whole, favours compounds with a hit. Of some 83,000 tested, about 20% had one in any assay.
reported endpoint: growth (%)
Please state the figure in %; there is no need to write the unit.

Example results:
- O=c1c2cc(F)ccc2sc2c(NCCN3CCOCC3)nc3ccccc3c12: 28.3
- NCCCNc1nc2ccccc2c2c(=O)c3cc(F)cc(Cl)c3sc12: -17.3
- CCN(CC)CCNc1nc2ccccc2c2c(=O)c3cc(Cl)ccc3sc12: -2.52
- NCCCNc1nc2ccc(Cl)cc2c2c(=O)c3cc(F)ccc3sc12: -27.4
- CCOC(=O)c1cn2ncnc(Oc3ccc(NC(=O)NCCN4CCN(C)CC4)c(Cl)c3)c2c1C: -13.9
- CC1CN(C2CCCCC2)C(=S)N(c2ccccc2)C1=O (stereo not given): 98.7
- O=C(Nc1ccc(F)cc1F)c1cc(F)ccc1O: 4.78
- NC(=O)C1(Nc2ccc(Br)cc2)CCCC1: 84.3
- O=c1c2cc(F)ccc2sc2c(NCCCNCCO)nc3ccc(F)cc3c12: -25.8
- COc1ccc(/C=C(/C#N)n2nnc3cccc(F)c32)cc1: 7.75

State its growth: `CCCCCCn1c(-c2ccc(C(=O)O/N=C(\N)c3ccc(OC)cc3)cc2)nc(-c2ccccc2)c1-c1ccccc1` -37.5

Specify reported growth for the compound shown: `CCN(CC)CCCNc1nc2ccccc2c2c(=O)c3cc(Cl)ccc3sc12` -15.7

Annotate the compound COc1cc(C(=O)N2N=C(c3ccc(S(C)(=O)=O)cc3)CC2c2ccco2)cc(OC)c1OC (stereo not given) with its measured growth. 8.01

Identify growth associated with the compound `O=C(Cc1ccc2c(c1)OCCO2)Nc1nc2ccc(F)cc2s1` 103

Quick one: give measured growth for `Cc1ccc(S(=O)(=O)Oc2ccc(NC(=O)c3ccc(Cl)cc3)cc2)cc1` 93.6

State, in one line, measured growth of `CCOC(=O)c1cn2ncnc(Oc3ccc(NC(=O)NCCN(C)C)c(Cl)c3)c2c1C` -13.1

Identify measured growth associated with CC([C@H]1CCC2C3CCC4C(=O)C(NC=O)=CC[C@]4(C)C3CC[C@@]21C)N(C)C (stereo not given in full) 54.3

Give a short answer stating reported growth for N#CC1=C(N)Oc2c(sc3c(Br)cccc23)C1c1ccc(Br)cc1 (stereo not given) . 4.23

State its growth for this compound: `C=C1C(=O)O[C@H]2[C@H]1CC/C(COC(=O)CSCC(=O)OC/C1=C/CC[C@@]3(C)O[C@H]3[C@H]3OC(=O)C(=C)[C@@H]3CC1)=C\CC[C@@]1(C)O[C@@H]21` 0.996

Query growth for `CCCCCCNC(=O)Oc1ccc(/C(=C(\C)c2ccc(OC)cc2)c2ccc(OCCN3CCCCC3)cc2)cc1` 0.84
